Test system: SW-620 colon
Experiment: NCI tumour cell line growth inhibition, 48 h; in the data active means GI50 below about 0.43 µM; inactive means the rest
Classes to choose from: TRUE (active), FALSE (inactive)

State the result this test recorded for "COc1ccc(/C(=N\O)c2cc(OC)c(OC)c(OC)c2)c(OC)c1N" . FALSE

State the result this test recorded for "COc1cc(Nc2ncc3c(C)nc(-c4cccc(Oc5ccccc5)c4)n3n2)cc(OC)c1OC" . FALSE

State the result this test recorded for "O=C1c2cccc3cccc(c23)C(=O)N1CCCCN1CCN(CCCCOc2ccc(-c3nc4ccc(N5CCOCC5)cc4[nH]3)cc2)CC1" . FALSE

State the result this test recorded for C/C1=C\CC[C@@]2(C)O[C@@H]2C[C@@H]2[C@H](C/C(C)=C/CC1)OC(=O)C21CCN=N1 (some centres undefined) . FALSE

State the result this test recorded for "c1ccc2c(-c3nc4ccccc4[nH]3)cccc2c1" . FALSE

State the result this test recorded for O=C(CC(O)c1ccncc1)c1ccccc1 (centres undefined) . FALSE

State the result this test recorded for "O=C1Nc2ccccc2/C1=C/c1cn(C(=O)c2c(Cl)cccc2Cl)c2ccccc12" . FALSE

State the result this test recorded for "Cn1ccnc1C(=O)/C=C/c1ccc(C(=O)Nc2ccccc2O)cc1" . FALSE

State the result this test recorded for "COc1ccc(Cn2cc3c(c2-c2ccc(O)cc2)CCc2cnoc2-3)cc1" . TRUE

State the result this test recorded for "COc1cc2c3c(n(CCCNC(=O)OCC4c5ccccc5-c5ccccc54)c(=O)c2cc1OC)-c1cc2c(cc1C3=O)OCO2" . FALSE

State the result this test recorded for "O=C(Nc1cccc([N+](=O)[O-])c1)c1ccc2ccccc2c1O" . FALSE

State the result this test recorded for "N#Cc1c(NC(=O)c2cccc3ccccc23)sc2c1CCCC2" . TRUE

State the result this test recorded for "COc1cc2c3c(n(CCCCNC(=O)OCC4c5ccccc5-c5ccccc54)c(=O)c2cc1OC)-c1cc2c(cc1C3=O)OCO2" . FALSE

State the result this test recorded for "COc1ccc2c(c1)C(=O)/C(=C/c1ccc([N+](=O)[O-])s1)O2" . TRUE

State the result this test recorded for "O=c1[nH]ccc2nc(-c3ccc(CN4CCC(c5nc(-c6ccccn6)n[nH]5)CC4)cc3)c(-c3ccccc3)cc12" . FALSE

State the result this test recorded for "Cc1cc(O)ccc1O" . FALSE

State the result this test recorded for "COc1cc(OC)c2cc(C(=O)O)c(=O)oc2c1" . FALSE

State the result this test recorded for "O=C(N1CCC(CN=c2cc3n(-c4ccc(Cl)cc4)c4ccccc4nc-3cc2Nc2ccc(Cl)cc2)CC1)N1CC1" . FALSE

State the result this test recorded for "O=C1/C(=C/c2ccc([N+](=O)[O-])o2)Oc2ccccc21" . TRUE
